log10 of Ki listing for selected molecules.
# TARGET_OR_TEST_SYSTEM: Solute carrier family 22 member 20 (Mus musculus, UniProt Q80UJ1)
# Sequence (Q80UJ1 whole entry): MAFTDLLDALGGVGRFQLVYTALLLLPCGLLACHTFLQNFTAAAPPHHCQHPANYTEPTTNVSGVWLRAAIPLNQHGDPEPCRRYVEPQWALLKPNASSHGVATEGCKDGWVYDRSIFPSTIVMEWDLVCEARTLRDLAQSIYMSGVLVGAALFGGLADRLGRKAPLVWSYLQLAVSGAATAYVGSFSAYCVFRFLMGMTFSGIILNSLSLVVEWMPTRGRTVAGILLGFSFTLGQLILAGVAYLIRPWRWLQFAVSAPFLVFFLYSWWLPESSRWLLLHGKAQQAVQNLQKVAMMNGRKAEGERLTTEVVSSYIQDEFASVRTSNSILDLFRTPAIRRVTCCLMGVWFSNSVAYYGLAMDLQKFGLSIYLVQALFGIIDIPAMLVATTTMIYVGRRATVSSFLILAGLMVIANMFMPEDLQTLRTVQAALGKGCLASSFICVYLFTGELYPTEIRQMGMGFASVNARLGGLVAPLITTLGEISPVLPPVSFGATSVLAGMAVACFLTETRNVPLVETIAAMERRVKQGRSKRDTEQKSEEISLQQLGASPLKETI
# MEASUREMENT_NOTES: Inhibition of mouse Oat6-mediated [3H]ES uptake in Xenopus oocytes after 1 hr
# Assay type: cell-based, Oocyte
# ASSAY_SETUP: read-out: Ki
Values are log10 of Ki in µM.

| MOLECULE | log10 of Ki |
| --- | --- |
| Nc1ccc(C(=O)NCC(=O)O)cc1 [AMINOHIPPURIC ACID] | 2.65 |
| CN(Cc1cnc2nc(N)nc(N)c2n1)c1ccc(C(=O)NC(CCC(=O)O)C(=O)O)cc1 (single isomer, unassigned) [METHOTREXATE] | 2.78 |
| CCCCCC(=O)O [HEXANOATE] | 0.95 |
| O=C(O)C(=O)Cc1ccc(O)cc1 [4-HYDROXYPHENYLPYRUVIC ACID] | 1.82 |
| O=C(O)C(=O)Cc1ccccc1 [PHENYLPYRUVATE] | 1.46 |
| CCC(=O)O [PROPIONIC ACID] | 2.45 |
| CCCCC[C@H](O)/C=C/[C@H]1[C@H](O)CC(=O)[C@@H]1C/C=C\CCCC(=O)O [DINOPROSTONE] | 1.26 |
| O=C(O)CCCCC(=O)O [ADIPIC ACID] | 3.20 |
| CC1(C)S[C@@H]2[C@H](NC(=O)Cc3ccccc3)C(=O)N2[C@H]1C(=O)O (single isomer, unassigned) [PENICILLIN G SODIUM] | 2.66 |
| CC(=O)C(=O)O [PYRUVATE] | 2.43 |

Ask: What measured log10 of Ki goes with CCCCC(CC)C(=O)O (centres undefined) [2-ETHYLHEXANOIC ACID] ?
Result: 0.82

Ask: Consider next the molecule CC(O)CC(=O)O (stereo not drawn) [3-HYDROXYBUTYRIC ACID, (+/-)-] in the same way.
Result: 2.28

Ask: Consider next the molecule O=C1OC2(c3ccc(O)cc3Oc3cc(O)ccc32)c2ccccc21 [FLUORESCEIN] in the same way.
Result: 2.00

Ask: Consider next the molecule C[C@]12CC[C@@H]3c4ccc(OS(=O)(=O)O)cc4CC[C@H]3[C@@H]1CC[C@@H]2OS(=O)(=O)O [ESTRADIOL DISULFATE] in the same way.
Result: 3.86

Ask: Consider next the molecule O=C(O)CNC(=O)c1ccccc1 [HIPPURIC ACID] in the same way.
Result: 2.49

Ask: Consider next the molecule CC(=O)Oc1ccccc1C(=O)O [ASPIRIN] in the same way.
Result: 2.00

Ask: Consider next the molecule `O=C(O)c1ccccc1-c1c2cc(Br)c(=O)c(Br)c-2oc2c(Br)c(O)c(Br)cc12` in the same way.
Result: 0.64

Ask: Consider next the molecule O=C(O)c1ccccc1 [BENZOIC ACID] in the same way.
Result: 1.14

Ask: Consider next the molecule CC(C)C(O)C(=O)O (centres undefined) in the same way.
Result: 2.50

Ask: Consider next the molecule CC(=O)NC(CC(=O)O)C(=O)O (centres undefined) in the same way.
Result: 4.44

###

# TARGET_OR_TEST_SYSTEM: Solute carrier family 22 member 20 (Mus musculus)
# Sequence (Q80UJ1 whole entry): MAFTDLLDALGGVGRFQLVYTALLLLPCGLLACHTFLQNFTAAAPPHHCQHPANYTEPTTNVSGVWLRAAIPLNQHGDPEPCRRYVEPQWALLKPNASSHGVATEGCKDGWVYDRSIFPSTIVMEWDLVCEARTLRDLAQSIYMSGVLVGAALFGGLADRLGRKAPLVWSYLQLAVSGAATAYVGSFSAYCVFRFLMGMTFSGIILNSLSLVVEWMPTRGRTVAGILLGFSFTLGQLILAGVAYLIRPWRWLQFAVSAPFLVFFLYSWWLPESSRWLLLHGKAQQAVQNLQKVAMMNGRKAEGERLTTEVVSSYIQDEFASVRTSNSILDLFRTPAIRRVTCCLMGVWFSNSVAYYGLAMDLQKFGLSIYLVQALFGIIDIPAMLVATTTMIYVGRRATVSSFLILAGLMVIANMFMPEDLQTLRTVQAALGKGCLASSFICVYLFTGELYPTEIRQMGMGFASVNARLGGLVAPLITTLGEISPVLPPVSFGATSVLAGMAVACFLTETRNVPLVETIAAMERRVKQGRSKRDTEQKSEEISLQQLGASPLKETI
# MEASUREMENT_NOTES: Activity of mouse Oat6 expressed in Xenopus oocytes assessed as drug uptake
# Assay type: cell-based
# ASSAY_SETUP: oocyte
MEASURED_ENDPOINT: Vmax (pmol/h)
The figure you give is taken to be in pmol/h; do not add the unit.

Consider the following illustrative entries.
| COMPOUND | Vmax, pmol/h |
| --- | --- |
| CC(C)Cc1ccc(C(C)C(=O)O)cc1 (stereo not given) | 0.28 |
| C[C@]12CC[C@@H]3c4ccc(OS(=O)(=O)O)cc4CC[C@H]3[C@@H]1CCC2=O | 40 |
| C[C@@H]1Cc2c(Cl)cc(C(=O)N[C@@H](Cc3ccccc3)C(=O)O)c(O)c2C(=O)O1 [3R14S-OCHRATOXIN A] | 4.8 |
| CCCCC[C@H](O)/C=C/[C@H]1[C@H](O)CC(=O)[C@@H]1C/C=C\CCCC(=O)O | 0.9 |

Proceeding to the next compound to report its Vmax.
Ask: GET /values?readout=Vmax&system=Solute carrier family 22 member 20 (Mus musculus)&item= `Nc1ccc(C(=O)NCC(=O)O)cc1`
Result: 4.6

###

# TARGET_OR_TEST_SYSTEM: Solute carrier family 22 member 20 (Mus musculus, UniProt Q80UJ1)
# MEASUREMENT_NOTES: Inhibition of mouse Oat6-mediated [3H]ES uptake in Xenopus oocytes after 1 hr
# Format: cell-based, Oocyte
# ASSAY_SETUP: read-out: pKi (converted)
Note to self: use met only for Ki readings below 200 µM; a reading exactly at 200 µM still gets not met.

| MOLECULE | TARGET_OR_TEST_SYSTEM | GROUP_LABEL |
| --- | --- | --- |
| CC(=O)N[C@@H](CC(=O)O)C(=O)O | Solute carrier family 22 member 20 (Mus musculus, UniProt Q80UJ1) | not met |
| CCCC[C@H](CC)C(=O)O | Solute carrier family 22 member 20 (Mus musculus, UniProt Q80UJ1) | met |

Ask: Just wondering, is Ki of `O=C(O)/C=C/C(=O)O` below 200 µM?
Result: not met

Ask: Consider next the molecule `CCCC[C@@H](CC)C(=O)O` in the same way.
Result: met

Ask: Consider next the molecule `CC(C)[C@H](O)C(=O)O` in the same way.
Result: not met

Ask: Consider next the molecule CC(C)[C@@H](O)C(=O)O [DEAMINOHYDROXYVALINE] in the same way.
Result: not met

Ask: Consider next the molecule `O=C(O)[C@@H](O)Cc1ccc(O)cc1` in the same way.
Result: met

Ask: Consider next the molecule C[C@@H](O)CC(=O)O [(R)-3-HYDROXYBUTANOATE] in the same way.
Result: met

Ask: Consider next the molecule `C[C@H](O)CC(=O)O` in the same way.
Result: met

###

# TARGET_OR_TEST_SYSTEM: Solute carrier family 22 member 20 (Mus musculus, UniProt Q80UJ1)
# MEASUREMENT_NOTES: Inhibition of mouse Oat6-mediated [3H]ES uptake in Xenopus oocytes after 1 hr
# Assay type: cell-based, Oocyte
# ASSAY_SETUP: read-out: Ki
MEASURED_ENDPOINT: Ki (µM)
The figure you give is taken to be in µM; do not add the unit.

| MOLECULE | TARGET_OR_TEST_SYSTEM | MEASURED_ENDPOINT | RECORDED_VALUE |
| --- | --- | --- | --- |
| O=C(O)C(O)Cc1ccc(O)cc1 (centres undefined) | Solute carrier family 22 member 20 (Mus musculus, UniProt Q80UJ1) | Ki | 182 |
| CCCC(=O)O [BUTYRIC ACID] | Solute carrier family 22 member 20 (Mus musculus, UniProt Q80UJ1) | Ki | 82 |

Ask: What measured Ki goes with CCCCCCC(=O)O [HEPTANOATE] ?
Result: 8.2
